From: ChEMBL document CHEMBL4311956

molecular target: Bromodomain-containing protein 2 (Homo sapiens, UniProt P25440, Y386A); assay: Displacement of Alexa Fluor 647 labelled ligand from His6-tagged BRD2 BD1 (1 to 473 residues)/BD2 Y386A mutant (unknown origin) after 30 mins by TR-FRET assay
Sequence (P25440 whole entry Y386A, the tested form may be a part): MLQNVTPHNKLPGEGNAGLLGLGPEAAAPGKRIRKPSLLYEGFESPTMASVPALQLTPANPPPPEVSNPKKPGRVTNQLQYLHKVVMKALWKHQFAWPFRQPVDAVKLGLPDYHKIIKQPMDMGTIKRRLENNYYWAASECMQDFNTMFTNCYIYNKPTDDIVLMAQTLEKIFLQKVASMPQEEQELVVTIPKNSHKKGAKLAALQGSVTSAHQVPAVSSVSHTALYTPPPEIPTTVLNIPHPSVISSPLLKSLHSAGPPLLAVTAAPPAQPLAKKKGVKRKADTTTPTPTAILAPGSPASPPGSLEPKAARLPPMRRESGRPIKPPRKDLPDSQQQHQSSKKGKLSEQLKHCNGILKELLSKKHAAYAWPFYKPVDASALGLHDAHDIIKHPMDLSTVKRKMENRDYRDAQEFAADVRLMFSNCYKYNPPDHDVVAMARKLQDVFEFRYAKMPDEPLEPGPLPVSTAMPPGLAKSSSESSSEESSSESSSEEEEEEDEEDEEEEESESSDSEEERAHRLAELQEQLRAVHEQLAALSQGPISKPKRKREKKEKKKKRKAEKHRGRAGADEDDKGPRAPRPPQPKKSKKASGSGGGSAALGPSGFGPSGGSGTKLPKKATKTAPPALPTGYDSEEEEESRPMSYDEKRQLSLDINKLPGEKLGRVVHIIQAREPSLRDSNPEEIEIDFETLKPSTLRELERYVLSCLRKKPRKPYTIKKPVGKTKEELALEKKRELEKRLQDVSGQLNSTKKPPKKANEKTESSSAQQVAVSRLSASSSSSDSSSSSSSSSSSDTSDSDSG
recorded endpoint: IC50

> print(dat)
                                   molecule     result
1  CC1(C2CC2)NC(=O)N(CC(=O)Nc2ccc(Br)c(S(=O)(=O)N3CCCCC3)c2)C1=O (racemic)  > 50.1 µM

----------
target: ATPase family AAA domain-containing protein 2 (Homo sapiens, UniProt Q6PL18); experiment: Displacement of SGRG-K(Ac)-GG-K(Ac)-GLG-K(Ac)-GGAKRHRKV-biotin) from His6/FLAG-tagged TEV fused ATAD2 bromodomain (981 to 1121 residues) (unknown origin) expressed in Escherichia coli BL21(DE3) cells after 30 mins by TR-FRET assay
recorded endpoint: log10 IC50 (log10 of the value in µM)

> print(dat)
                                   compound  numeric.readout
1  Cc1[nH]c(=O)c(C#N)c(C)c1CCC(=O)Nc1ccc(Cl)c(S(=O)(=O)N2CCCCC2)c1             0.10
2  CC1(C2CC2)NC(=O)N(CC(=O)Nc2ccc(C(F)(F)F)c(S(=O)(=O)N3CCCCC3)c2)C1=O (racemic)             1.00
3  CC1(C2CC2)NC(=O)N(CC(=O)Nc2ccc(Br)c(S(=O)(=O)N3CCCCC3)c2)C1=O (racemic)            -0.50
4   CCC(=O)Nc1ccc(Cl)c(S(=O)(=O)N2CCCCC2)c1             1.90
5  Cc1ccc(NC(=O)CN2C(=O)NC3(CCc4ccccc43)C2=O)cc1S(=O)(=O)N1CCCCC1 (stereo not given)             0.90
6  Cc1ccc(NC(=O)CN2C(=O)CN(C)C2=O)cc1S(=O)(=O)N1CCCCC1             1.70
7  O=C(CN1C(=O)NC(CCc2ccccc2)C1=O)Nc1ccc(Cl)c(S(=O)(=O)N2CCCCC2)c1 (stereo not given)             0.50

----------
Biological target: ATPase family AAA domain-containing protein 2 (Homo sapiens, UniProt Q6PL18)
Sequence (Q6PL18 whole entry): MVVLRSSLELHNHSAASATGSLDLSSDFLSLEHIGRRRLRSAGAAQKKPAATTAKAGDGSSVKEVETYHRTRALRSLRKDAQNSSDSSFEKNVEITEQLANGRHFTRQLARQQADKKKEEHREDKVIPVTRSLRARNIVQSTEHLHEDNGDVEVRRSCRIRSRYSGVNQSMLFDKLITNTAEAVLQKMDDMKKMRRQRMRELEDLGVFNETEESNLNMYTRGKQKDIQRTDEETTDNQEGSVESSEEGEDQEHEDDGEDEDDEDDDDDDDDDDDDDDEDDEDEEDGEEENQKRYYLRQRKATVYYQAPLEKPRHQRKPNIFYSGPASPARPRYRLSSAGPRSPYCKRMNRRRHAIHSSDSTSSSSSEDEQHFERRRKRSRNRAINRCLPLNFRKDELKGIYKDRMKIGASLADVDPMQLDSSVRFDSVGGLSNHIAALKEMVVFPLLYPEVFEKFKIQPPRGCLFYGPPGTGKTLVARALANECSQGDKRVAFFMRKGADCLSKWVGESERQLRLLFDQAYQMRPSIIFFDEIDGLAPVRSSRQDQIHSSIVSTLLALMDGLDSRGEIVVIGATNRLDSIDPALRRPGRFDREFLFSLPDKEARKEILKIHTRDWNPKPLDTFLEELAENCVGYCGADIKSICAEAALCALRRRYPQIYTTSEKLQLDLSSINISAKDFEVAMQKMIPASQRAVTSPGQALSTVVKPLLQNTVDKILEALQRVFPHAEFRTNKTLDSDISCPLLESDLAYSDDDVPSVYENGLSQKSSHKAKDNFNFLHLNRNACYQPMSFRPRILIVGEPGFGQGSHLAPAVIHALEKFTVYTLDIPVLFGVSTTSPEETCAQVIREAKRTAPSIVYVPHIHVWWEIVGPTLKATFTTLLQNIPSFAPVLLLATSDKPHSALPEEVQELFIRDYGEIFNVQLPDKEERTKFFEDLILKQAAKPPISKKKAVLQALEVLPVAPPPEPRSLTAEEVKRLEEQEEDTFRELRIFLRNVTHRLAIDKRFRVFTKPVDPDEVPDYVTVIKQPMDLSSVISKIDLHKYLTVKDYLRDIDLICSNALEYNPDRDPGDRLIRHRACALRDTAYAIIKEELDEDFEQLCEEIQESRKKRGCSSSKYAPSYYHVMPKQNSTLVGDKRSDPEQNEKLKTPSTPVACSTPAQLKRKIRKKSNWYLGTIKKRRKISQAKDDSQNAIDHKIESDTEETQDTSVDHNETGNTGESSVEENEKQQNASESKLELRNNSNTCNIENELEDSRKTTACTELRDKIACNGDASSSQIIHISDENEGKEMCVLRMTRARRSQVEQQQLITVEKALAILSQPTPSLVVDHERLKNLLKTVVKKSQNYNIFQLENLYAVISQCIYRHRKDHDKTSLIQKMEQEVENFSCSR
Test: Binding affinity to His6/FLAG-tagged TEV fused ATAD2 bromodomain (950 to 1148 residues) (unknown origin) expressed in Escherichia coli BL21(DE3) cells by surface plasmon resonance
One threshold, 20 µM, splits the recorded Kd values: lower ones are 1 (yes), equal or higher ones are 0 (no).

> print(dat)
                                    compound                              assay.system  discrete.label
 1  Cc1ccc(NC(=O)CN2C(=O)NC(C)(C)C2=O)cc1S(=O)(=O)N1CCCCCC1  ATPase family AAA domain-containing protein 2 (Homo sapiens, UniProt Q6PL18)         1 (yes)
 2  O=C(CCNC1=NS(=O)(=O)c2ccccc21)Nc1ccc(Cl)c(S(=O)(=O)N2CCCC2)c1  ATPase family AAA domain-containing protein 2 (Homo sapiens, UniProt Q6PL18)         1 (yes)
 3  CSCCC1NC(=O)N(CC(=O)Nc2ccc(Cl)c(S(=O)(=O)N3CCOCC3)c2)C1=O (stereo not drawn)  ATPase family AAA domain-containing protein 2 (Homo sapiens, UniProt Q6PL18)         1 (yes)
 4  CN(C)S(=O)(=O)c1cc(NC(=O)CN2C(=O)NC3(CCCc4ccccc43)C2=O)ccc1Cl (stereo not drawn)  ATPase family AAA domain-containing protein 2 (Homo sapiens, UniProt Q6PL18)         1 (yes)
 5  CC1(C2CC2)NC(=O)N(CC(=O)Nc2ccc(Cl)c(S(=O)(=O)N3CCCCC3)c2)C1=O (racemic)  ATPase family AAA domain-containing protein 2 (Homo sapiens, UniProt Q6PL18)         1 (yes)
 6  Cc1ccc(NC(=O)CN2C(=O)CN(C)C2=O)cc1S(=O)(=O)N1CCCCC1  ATPase family AAA domain-containing protein 2 (Homo sapiens, UniProt Q6PL18)          0 (no)
 7  Cc1ccc(NC(=O)CN2C(=O)NC3(CCc4ccccc43)C2=O)cc1S(=O)(=O)N1CCCCC1 (stereo not drawn)  ATPase family AAA domain-containing protein 2 (Homo sapiens, UniProt Q6PL18)         1 (yes)
 8  CCN(CC)S(=O)(=O)c1cc(NC(=O)CN2C(=O)NC(C)(c3ccccc3)C2=O)ccc1C (stereo not drawn)  ATPase family AAA domain-containing protein 2 (Homo sapiens, UniProt Q6PL18)          0 (no)
 9  Cc1[nH]c(=O)c(C#N)c(C)c1CCC(=O)Nc1ccc(Cl)c(S(=O)(=O)N2CCCCC2)c1  ATPase family AAA domain-containing protein 2 (Homo sapiens, UniProt Q6PL18)         1 (yes)
10  Cc1ccccc1C(=O)NCC(=O)Nc1ccc(C)c(S(=O)(=O)N2CCCCCC2)c1  ATPase family AAA domain-containing protein 2 (Homo sapiens, UniProt Q6PL18)          0 (no)
11  Cc1ccc(C2(C)NC(=O)N(CC(=O)Nc3ccc(C)c(S(=O)(=O)N4CCCCC4)c3)C2=O)cc1 (stereo not drawn)  ATPase family AAA domain-containing protein 2 (Homo sapiens, UniProt Q6PL18)         1 (yes)
12  O=C(CCNC(=O)c1ccccc1)Nc1ccc(Cl)c(S(=O)(=O)N2CCCCC2)c1  ATPase family AAA domain-containing protein 2 (Homo sapiens, UniProt Q6PL18)          0 (no)

----------
target: Bromodomain-containing protein 4 (Homo sapiens, UniProt O60885, Y97A); assay: Displacement of Alexa Fluor 647 labelled ligand from His6-tagged BRD4 BD2 (1 to 477 residues)/BD1 Y97A mutant (unknown origin) after 30 mins by TR-FRET assay
pIC50: −log10 of the molar value.
recorded endpoint: pIC50

> print(dat)
                                   compound  recorded.endpoint  result
1  Cc1ccc(C2(C)NC(=O)N(CC(=O)Nc3ccc(C)c(S(=O)(=O)N4CCCCC4)c3)C2=O)cc1 (centres undefined)              pIC50  < 4.30
2  CC1(C2CC2)NC(=O)N(CC(=O)Nc2cccc(S(=O)(=O)N3CCCCC3)c2)C1=O (racemic)              pIC50    4.50
3  CSCCC1NC(=O)N(CC(=O)Nc2ccc(Cl)c(S(=O)(=O)N3CCOCC3)c2)C1=O (centres undefined)              pIC50  < 4.30
4  O=C(CN1C(=O)NC(CCc2ccccc2)C1=O)Nc1ccc(Cl)c(S(=O)(=O)N2CCCCC2)c1 (centres undefined)              pIC50  < 4.30
